test: The drug is tested on WLS-220 corresponding to human gut metagenome with ENA study accession number: PRJEB37062 and ENA sample accession number: ERS12561769 for biotransformation under anaerobic condition. The drug concentrations were measured over 9 timepoints collected between 0 and 24 hours of incubation by liquid-chromatography-coupled mass spectrometry (LC–MS); conditions: 2 µM; also: call rule not given here
measured-metric: Bacterial Biotransformation

COc1c2occc2cc2ccc(=O)oc12 [METHOXSALEN] = Compound metabolized
CN1CCN(CC/C=C2/c3ccccc3Sc3ccc(S(=O)(=O)N(C)C)cc32)CC1 [THIOTHIXENE] = Compound metabolized
CCOC(=O)[C@H](CCc1ccccc1)N[C@@H](C)C(=O)N1[C@H](C(=O)O)C[C@H]2CCCC[C@@H]21 [TRANDOLAPRIL] = Compound metabolized

---

assay: The drug is tested on WLS-310 corresponding to human gut metagenome with ENA study accession number: PRJEB37062 and ENA sample accession number: ERS12561785 for biotransformation under anaerobic condition. The drug concentrations were measured over 9 timepoints collected between 0 and 24 hours of incubation by liquid-chromatography-coupled mass spectrometry (LC–MS); conditions: 2 µM
measured-metric: Bacterial Biotransformation

C[C@@H]1CC[C@H]2[C@@H](C)C(=O)O[C@@H]3O[C@@]4(C)CC[C@@H]1[C@]32OO4 [ARTEMISININ] = Compound metabolized
CCCCC(=O)N(Cc1ccc(-c2ccccc2-c2nnn[nH]2)cc1)[C@H](C(=O)O)C(C)C = Compound metabolized
CN1CCOC(c2ccccc2)c2ccccc2C1 (stereo unspecified) [NEFOPAM] = Compound NOT metabolized
Cc1nc2n(c(=O)c1CCN1CCC(c3noc4cc(F)ccc34)CC1)CCCC2O (stereo unspecified) [PALIPERIDONE] = Compound metabolized
COc1c(C)c2c(c(O)c1C/C=C(\C)CCC(=O)OCCN1CCOCC1)C(=O)OC2 [MYCOPHENOLATE MOFETIL] = Compound metabolized

Exercise: Request the reported Bacterial Biotransformation associated with COCCc1ccc(OCC(O)CNC(C)C)cc1.COCCc1ccc(OCC(O)CNC(C)C)cc1.O=C(O)C(O)C(O)C(=O)O (stereo unspecified) [METOPROLOL TARTRATE]
Key: Compound metabolized

Exercise: Record request: Bacterial Biotransformation value, item CCN(CC)CCNC(=O)c1cc(Cl)c(N)cc1OC [METOCLOPRAMIDE]
Key: Compound NOT metabolized

---

conditions: human gut metagenome, 24 h, 2 µM
measured-metric: Bacterial Biotransformation

CN1CCC(=C2c3ccccc3CCc3cccnc32)CC1.O=C(O)/C=C\C(=O)O.O=C(O)/C=C\C(=O)O [AZATADINE MALEATE] = Compound NOT metabolized
CNS(=O)(=O)Cc1ccc2[nH]cc(CCN(C)C)c2c1.O=C(O)CCC(=O)O [SUMATRIPTAN SUCCINATE] = Compound NOT metabolized
CNC(=C[N+](=O)[O-])NCCSCc1csc(CN(C)C)n1 = Compound metabolized
OCCOCCN1CCN(C2=Nc3ccccc3Sc3ccccc32)CC1 = Compound NOT metabolized
COc1cc2c(c(OC)c1OC)-c1ccc(OC)c(=O)cc1[C@@H](NC(C)=O)CC2 = Compound NOT metabolized
COC(=O)C1=C(C)NC(C)=C(C(=O)OC(C)C)C1c1cccc2nonc12 (stereo unspecified) = Compound NOT metabolized

Exercise: What does the data say about its Bacterial Biotransformation? Entry: CN1CCc2cccc3c2[C@H]1Cc1ccc(O)c(O)c1-3
Key: Compound NOT metabolized

Exercise: Could you tell me which Bacterial Biotransformation is on file for CCN(CC)C(C)CN1c2ccccc2Sc2ccccc21 (stereo unspecified) ?
Key: Compound metabolized

Exercise: Can you share its Bacterial Biotransformation? I mean this compound: CC(C)NCC(O)COc1ccc(COCCOC(C)C)cc1.CC(C)NCC(O)COc1ccc(COCCOC(C)C)cc1.O=C(O)/C=C/C(=O)O (stereo unspecified) [BISOPROLOL FUMARATE]
Key: Compound NOT metabolized

---

details: human gut metagenome, 24 h, 2 µM
measured-metric: Bacterial Biotransformation

Some molecules with known Bacterial Biotransformation results, for comparison:
Cc1ccccc1N1C(=O)c2cc(S(N)(=O)=O)c(Cl)cc2NC1C (stereo not given) [METOLAZONE] = Compound NOT metabolized
C=CCc1ccccc1OCC(O)CNC(C)C (stereo not given) [ALPRENOLOL] = Compound NOT metabolized
O=C(NCc1ccccc1)OCCO [BURAMATE] = Compound NOT metabolized
OC(CCN1CCCCC1)(c1ccccc1)C1CCCCC1 (stereo not given) [TRIHEXYPHENIDYL] = Compound metabolized
CC(=O)CC(c1ccccc1)c1c(O)c2ccccc2oc1=O (stereo not given) [WARFARIN] = Compound metabolized
NC(=O)N1c2ccccc2CC(=O)c2ccccc21 [OXCARBAZEPINE] = Compound NOT metabolized
COc1cc2nc(N(C)CCCNC(=O)C3CCCO3)nc(N)c2cc1OC (stereo not given) [ALFUZOSIN] = Compound metabolized
COCCc1ccc(OCC(O)CNC(C)C)cc1.COCCc1ccc(OCC(O)CNC(C)C)cc1.O=C(O)C(O)C(O)C(=O)O (stereo not given) [METOPROLOL TARTRATE] = Compound metabolized
CS(=O)(=O)O.OC(CCN1CCCCC1)(c1ccccc1)c1ccccc1 [PRIDINOL METHANESULFONATE] = Compound NOT metabolized

The record that follows has no Bacterial Biotransformation shown yet.
Exercise: Value lookup for Bacterial Biotransformation; key = O=c1n(CCCN2CCN(c3cccc(Cl)c3)CC2)nc2ccccn12 [TRAZODONE]
Key: Compound metabolized

---

details: human gut metagenome, 24 h, 2 µM
measured-metric: Bacterial Biotransformation

CC[C@@H](CO)NC(=O)[C@@H]1C=C2c3cccc4c3c(cn4C)C[C@H]2N(C)C1.O=C(O)/C=C\C(=O)O [METHYSERGIDE MALEATE] = Compound NOT metabolized
CCCc1nc2c(C)cc(-c3nc4ccccc4n3C)cc2n1Cc1ccc(-c2ccccc2C(=O)O)cc1 = Compound metabolized
Cc1cn([C@H]2C[C@H](N=[N+]=[N-])[C@@H](CO)O2)c(=O)[nH]c1=O [ZIDOVUDINE] = Compound NOT metabolized
NC(=O)N1c2ccccc2CC(=O)c2ccccc21 [OXCARBAZEPINE] = Compound NOT metabolized
CC(=O)OCC(=O)[C@@]1(O)[C@@H](C)C[C@H]2[C@@H]3CCC4=CC(=O)C=C[C@]4(C)[C@@]3(F)[C@@H](O)C[C@@]21C [BETAMETHASONE ACETATE] = Compound NOT metabolized
Nc1c2c(nc3ccccc13)CCCC2 [TACRINE] = Compound NOT metabolized
Cc1ccc(S(=O)(=O)NC(=O)NN2CCCCCC2)cc1 [TOLAZAMIDE] = Compound metabolized

Field: next compound
Exercise: Report Bacterial Biotransformation for CCCC(=O)Nc1ccc(OCC(O)CNC(C)C)c(C(C)=O)c1 (stereo not drawn) [ACEBUTOLOL] please.
Key: Compound NOT metabolized

---

experiment: The drug is tested on WLS-010 corresponding to human gut metagenome with ENA study accession number: PRJEB37062 and ENA sample accession number: ERS12561743 for biotransformation under anaerobic condition. The drug concentrations were measured over 9 timepoints collected between 0 and 24 hours of incubation by liquid-chromatography-coupled mass spectrometry (LC–MS); settings: 2 µM
measured-metric: Bacterial Biotransformation

// below: answered molecules
CN1CC(=O)N2[C@H](c3ccc4c(c3)OCO4)c3[nH]c4ccccc4c3C[C@@H]2C1=O = Compound metabolized
O=C(Nc1ccccc1)OCC(CN1CCCCC1)OC(=O)Nc1ccccc1 (stereo not given) = Compound metabolized
CC(C)NCC(O)c1ccc(NS(C)(=O)=O)cc1 (stereo not given) = Compound NOT metabolized
OC(Cn1cncn1)(Cn1cncn1)c1ccc(F)cc1F = Compound NOT metabolized

Exercise: Bacterial Biotransformation lookup needed for COc1c(C)c2c(c(O)c1C/C=C(\C)CCC(=O)OCCN1CCOCC1)C(=O)OC2 [MYCOPHENOLATE MOFETIL] , thanks.
Key: Compound metabolized

---

conditions: human gut metagenome, 24 h, 2 µM
measured-metric: Bacterial Biotransformation

CC(C)(C#N)c1cc(Cn2cncn2)cc(C(C)(C)C#N)c1 [ANASTROZOLE] = Compound NOT metabolized
Cc1ccc(/C(=C\CN2CCCC2)c2ccccn2)cc1 [TRIPROLIDINE] = Compound NOT metabolized
CCOC(=O)[C@H](CCc1ccccc1)N[C@H]1CCc2ccccc2N(CC(=O)O)C1=O [BENAZEPRIL] = Compound metabolized
CN1CCC(=C2c3ccccc3CCc3cccnc32)CC1.O=C(O)/C=C\C(=O)O.O=C(O)/C=C\C(=O)O [AZATADINE MALEATE] = Compound NOT metabolized
CN(C(=O)CN(CCO)CC(=O)N(C)C(C)(C)Cc1ccccc1)C(C)(C)Cc1ccccc1 [OXETHAZAINE] = Compound metabolized
CCCCc1nc(Cl)c(CO)n1Cc1ccc(-c2ccccc2-c2nn[nH]n2)cc1 [LOSARTAN] = Compound metabolized
Cc1nc(-c2ccc(OCC(C)C)c(C#N)c2)sc1C(=O)O [FEBUXOSTAT] = Compound metabolized
NC(=O)N1c2ccccc2CC(=O)c2ccccc21 [OXCARBAZEPINE] = Compound NOT metabolized
COc1ccccc1OCC(O)CN1CCN(CC(=O)Nc2c(C)cccc2C)CC1 (stereo not given) [RANOLAZINE] = Compound NOT metabolized
CNC(=C[N+](=O)[O-])NCCSCc1csc(CN(C)C)n1 [NIZATIDINE] = Compound NOT metabolized

Exercise: Would you kindly share the measured Bacterial Biotransformation for CC(CN1c2ccccc2Sc2ccccc21)N(C)C (stereo not given) [PROMETHAZINE] ?
Key: Compound metabolized

Exercise: Please look up its Bacterial Biotransformation: CN1CCc2cccc3c2[C@H]1Cc1ccc(O)c(O)c1-3 [APOMORPHINE]
Key: Compound NOT metabolized

Exercise: What does the record list as Bacterial Biotransformation for CC(C)(Oc1ccc(CCNC(=O)c2ccc(Cl)cc2)cc1)C(=O)O [BEZAFIBRATE] ?
Key: Compound NOT metabolized

Exercise: Which Bacterial Biotransformation is listed for CCN(CC)CCOC(=O)C(Cc1cccc2ccccc12)CC1CCCO1.O=C(O)C(=O)O (stereo not given) [NAFRONYL OXALATE] ?
Key: Compound metabolized

Exercise: So what does the record say about Bacterial Biotransformation for CCCc1nn(C)c2c(=O)[nH]c(-c3cc(S(=O)(=O)N4CCN(C)CC4)ccc3OCC)nc12.O=C(O)CC(O)(CC(=O)O)C(=O)O [SILDENAFIL CITRATE] ?
Key: Compound NOT metabolized

Exercise: Quick one: Bacterial Biotransformation for CC(C)c1nc(CN(C)C(=O)N[C@H](C(=O)N[C@@H](Cc2ccccc2)C[C@H](O)[C@H](Cc2ccccc2)NC(=O)OCc2cncs2)C(C)C)cs1 [RITONAVIR] ?
Key: Compound NOT metabolized

Exercise: Fill in: Bacterial Biotransformation of NC(CO)(CO)CO.O=C(c1ccccc1)c1ccc2n1CCC2C(=O)O (stereo not given) [KETOROLAC TROMETHAMINE] is ___
Key: Compound metabolized

Exercise: # Bacterial Biotransformation lookup, item C=CCc1ccccc1OCC(O)CNC(C)C (stereo not given) [ALPRENOLOL]
Key: Compound NOT metabolized

Exercise: // query Bacterial Biotransformation value for entry Cc1ccc(S(=O)(=O)NC(=O)NN2CC3CCCC3C2)cc1 (stereo not given) [GLICLAZIDE]
Key: Compound metabolized

Exercise: Using the record for Cc1ccc(-c2cc(C(F)(F)F)nn2-c2ccc(S(N)(=O)=O)cc2)cc1 [CELECOXIB] , report its Bacterial Biotransformation.
Key: Compound NOT metabolized
